Would you kindly list log10 of EC50 for each of these binders?
targetSystem: T1, Peptide-64 (cysteine pairing not given here; also: biotinylated, site not given here)
T1 peptide: PDFCAVYRWPICYQ
assaySummary: ELISA, Fab on captured biotin-peptide
Where no end group is shown, it is not given here.
Units before log transform: nM; reported quantity: EC50; transform: log10.

Here is how some binders turned out for log10 of EC50.
Record TBD-21 (HC F108A) (Fab, V domains shown, Fab; also called HC F108A mutant) VH: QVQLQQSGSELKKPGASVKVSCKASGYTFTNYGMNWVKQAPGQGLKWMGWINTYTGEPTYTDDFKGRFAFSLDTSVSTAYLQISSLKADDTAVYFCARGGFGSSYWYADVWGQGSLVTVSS VL: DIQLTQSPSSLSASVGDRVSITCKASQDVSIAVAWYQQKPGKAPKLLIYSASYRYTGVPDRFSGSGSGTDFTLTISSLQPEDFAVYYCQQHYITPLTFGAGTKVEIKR , field log10 of EC50: 1.04

Record TBD-1 wt (Fab, V domains shown, Fab; the heavy chain entry is VH-CH1; also called wild-type anti-TROP2 Fab (hRS7); TROP2 Fab) VH: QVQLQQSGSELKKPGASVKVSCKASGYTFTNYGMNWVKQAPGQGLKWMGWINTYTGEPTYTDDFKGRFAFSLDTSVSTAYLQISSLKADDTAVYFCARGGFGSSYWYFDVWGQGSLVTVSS VL: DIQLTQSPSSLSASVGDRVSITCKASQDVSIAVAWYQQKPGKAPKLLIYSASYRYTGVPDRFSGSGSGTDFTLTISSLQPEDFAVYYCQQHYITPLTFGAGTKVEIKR , field log10 of EC50: 1.45

Record TBD-6 (LC I93A) (Fab, V domains shown, Fab; also called LC I93A mutant) VH: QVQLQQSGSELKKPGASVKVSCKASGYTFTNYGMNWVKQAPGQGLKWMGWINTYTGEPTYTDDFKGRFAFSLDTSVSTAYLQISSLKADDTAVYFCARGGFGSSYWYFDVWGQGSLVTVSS VL: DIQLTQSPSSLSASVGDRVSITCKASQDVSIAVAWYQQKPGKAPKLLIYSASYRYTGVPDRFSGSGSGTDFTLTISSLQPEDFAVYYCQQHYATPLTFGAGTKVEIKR , field log10 of EC50: 0.81

Record TBD-17 (HC S104A) (Fab, V domains shown, Fab; also called HC S104A mutant) VH: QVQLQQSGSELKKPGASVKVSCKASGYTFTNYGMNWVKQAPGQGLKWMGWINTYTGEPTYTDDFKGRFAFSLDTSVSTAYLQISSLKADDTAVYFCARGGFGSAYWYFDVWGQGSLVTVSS VL: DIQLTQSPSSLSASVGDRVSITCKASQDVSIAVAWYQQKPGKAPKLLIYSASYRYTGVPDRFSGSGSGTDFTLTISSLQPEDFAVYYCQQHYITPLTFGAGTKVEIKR , field log10 of EC50: 0.58

Record TBD-22 (HC D109A) (Fab, V domains shown, Fab; also called HC D109A mutant) VH: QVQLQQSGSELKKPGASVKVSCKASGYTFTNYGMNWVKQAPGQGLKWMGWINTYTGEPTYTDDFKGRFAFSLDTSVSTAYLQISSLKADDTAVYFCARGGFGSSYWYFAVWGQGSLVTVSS VL: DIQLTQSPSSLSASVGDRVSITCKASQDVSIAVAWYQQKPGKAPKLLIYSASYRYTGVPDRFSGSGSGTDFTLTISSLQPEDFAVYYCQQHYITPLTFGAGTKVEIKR , field log10 of EC50: 0.23

Further cases:
Record TBD-11 (HC R98A) (Fab, V domains shown, Fab; also called HC R98A mutant) VH: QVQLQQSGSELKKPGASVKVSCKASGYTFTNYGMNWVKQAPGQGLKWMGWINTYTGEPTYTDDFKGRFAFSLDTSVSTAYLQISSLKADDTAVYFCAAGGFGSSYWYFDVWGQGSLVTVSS VL: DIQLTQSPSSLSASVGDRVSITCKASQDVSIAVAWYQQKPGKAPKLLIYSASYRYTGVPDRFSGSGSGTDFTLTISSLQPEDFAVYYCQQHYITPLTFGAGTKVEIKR , field log10 of EC50: 1.79
